test name: Toxicity liver stage against HepG2, at 10uM
Format: cell-based
Parameters: test concentration 10 uM, cell line HepG2-A16-CD81EGFP
condition details: human, HepG2-A16-CD81EGFP cells; read-out: INHIBITION
parameter: cytotoxicity at 10 µM (%)
Numbers only, in %.

Example results:
molecule | parameter | measured
CCc1nc(C)c(CN2CCN(c3ncnc4c(C)csc34)CC2)[nH]1 | cytotoxicity at 10 µM | 17.6
Cc1ccnc(OC[C@@]23CCO[C@@H]2CCN(C2CCC2)C3)n1 | cytotoxicity at 10 µM | 8.01
COCCN1CCC(c2cncc(-c3ccccc3C)n2)CC1 | cytotoxicity at 10 µM | -15.1
Cc1noc(CN(CCc2cccs2)Cc2cccc(C#N)c2)n1 | cytotoxicity at 10 µM | 2.27
Cc1ncsc1C(=O)NC1CCN(CCC#N)CC1 | cytotoxicity at 10 µM | -8.87

# evaluate next
Please fill in: cytotoxicity at 10 µM reported for Cc1nc(C2CCCN2C(=O)Cc2ccc3c(c2)OCO3)nc(O)c1C (stereo unspecified) = -34.9

###

test name: Toxicity liver stage against HepG2, at 10uM
Assay type: cell-based
Parameters: test concentration 10 uM, cell line HepG2-A16-CD81EGFP
condition details: human, HepG2-A16-CD81EGFP cells; read-out: INHIBITION
I'd appreciate it if you could supply cytotoxicity at 10 µM values for the items below.
Give bare numbers, in %.

Example results:
molecule | parameter | measured
O=S(=O)(CC1CCCO1)Nc1cc(Cl)ccc1-n1cccn1 (stereo unspecified) | cytotoxicity at 10 µM | 3.55
CNC(=O)C1CCCN(C(=O)NCCC2Cc3ccccc3C2)C1 (stereo unspecified) | cytotoxicity at 10 µM | 15.4

For every listed record, write down its cytotoxicity at 10 µM.
1. Nc1cc2c(nn1)CCN(C(=O)c1csc(-c3ccco3)n1)C2
2. CCn1cc(-c2nccnc2C2CCCN(C(C)=O)C2)cn1 (stereo unspecified)
3. CC(C)Sc1nnc(CCNC(=O)OC(C)(C)C)o1
4. Cc1cccc(-c2noc(CN3CCCCC3Cn3cncn3)n2)c1 (stereo unspecified)
5. Cc1ccc(F)cc1S(=O)(=O)NCc1cccc(C(=O)N2CCCC2)c1
6. CN(C)Cc1cnc(C2CCN(C(=O)c3ccc(F)cc3)C2)[nH]1 (stereo unspecified)
7. CC(NC(=O)NCCCn1ccnc1)c1ccc2c(c1)OCCCO2 (stereo unspecified)
8. COC(=O)c1c(Cl)c(C)nc2onc(C)c12

1. -2.79
2. -6.03
3. 14.3
4. -4.32
5. -15.1
6. -1.92
7. -15.1
8. -0.895

Please fill in: cytotoxicity at 10 µM reported for Cc1cc(C)nc(N2CCCC(C(=O)Nc3n[nH]c(C(C)C)n3)C2)n1 (stereo unspecified) = 8.04

###

test name: Toxicity liver stage against HepG2, at 10uM
Format: cell-based
Set-up: test concentration 10 uM, cell line HepG2-A16-CD81EGFP
condition details: human, HepG2-A16-CD81EGFP cells; read-out: INHIBITION
parameter: cytotoxicity at 10 µM (%)
Give bare numbers, in %.

Example results:
molecule | measured
CS(=O)(=O)NC1CCN(C(=O)NCc2cccnc2)CC1 | 0.796
COc1ccc(C2=NOC(C#N)C2)cc1 (configuration not stated) | -11.2
O=C(CCNc1ncccn1)NCc1ccc(Br)s1 | 6.72
Cc1ccc(N2CCN(c3ccccc3C)CC2C)nn1 (configuration not stated) | 13.2
CCc1c(C)noc1-c1cnc(NC2CC2)nc1-c1cnc(C)cn1 | -29
N#Cc1cccnc1OC1CCN(S(=O)(=O)c2ccc(Br)cc2)CC1 | 3.61

For every listed record, write down its cytotoxicity at 10 µM.
1. CC(C(=O)NC1CC1)S(=O)(=O)Cc1nc(Cc2ccccc2)no1 (configuration not stated)
2. CC(C)CN1CC[C@H]2OCC[C@@H](C(=O)N3CCCO3)[C@@H]2C1
3. Cc1cn(Cc2ccccc2)nc1N
4. Cn1cccc1C(=O)NCc1cnc2n1CCN(C(N)=O)CC2
5. COc1ccccc1CNC(=O)N1CCN(Cc2cc(C)on2)CC1
6. COCCN(C)C(C(=O)O)c1cc(Cl)ccc1OC (configuration not stated)

1. 5.42
2. 3.45
3. -4.66
4. 0.312
5. -9.07
6. -6.92

###

I'd appreciate it if you could supply cytotoxicity at 10 µM values for the items below.
test name: Toxicity liver stage against HepG2, at 10uM
Type: cell-based
Set-up: test concentration 10 uM, cell line HepG2-A16-CD81EGFP
condition details: human, HepG2-A16-CD81EGFP cells; read-out: INHIBITION
Answers are plain numbers, in %.

Example results:
molecule | cytotoxicity at 10 µM, %
CCOc1c(Br)cc(CNCCc2nnc3n2CCCCC3)cc1OC | -59.6
N#Cc1ccc(OCCN2CCc3c(ncn3C3CC3)C2)cc1 | -0.318
COCCN(C)C(=O)c1nc2c(s1)CCCN2c1ncccn1 | -131
Cc1cn2nc(N3CCCC3Cn3nc(C)nc3C)sc2n1 (configuration not stated) | -14.6
COc1ccccc1N1CCN(C(=O)Cn2nc(C)c(Cl)c2C)CC1 | 0.808
CCCC(=O)NCCc1nc2cc(-c3ccc(OC)cc3)ncn2n1 | 5.26

For every listed record, write down its cytotoxicity at 10 µM.
1. CNC(=O)C1(c2cnccn2)CCCN1C(=O)Cc1ccsc1 (configuration not stated)
2. Cn1cc(CC2CCN(C(=O)NCc3cccc(C#N)c3)C2)cn1 (configuration not stated)
3. CSc1ccc(CNC(=O)NCC(O)c2cccc(F)c2)cc1 (configuration not stated)

1. 4.12
2. -12.3
3. -6.16

For every listed record, write down its cytotoxicity at 10 µM.
1. COC(=O)c1ccc(N2CCN(C(=O)C3CCC3)C(C)C2)cc1 (configuration not stated)
2. Fc1cc(CNc2nncs2)ccc1Cl
3. COc1cc(F)ccc1N(C)Cc1cccnc1

1. -4.18
2. -1.74
3. -3.47

###

test name: Toxicity liver stage against HepG2, at 10uM
Assay type: cell-based
Set-up: test concentration 10 uM, cell line HepG2-A16-CD81EGFP
condition details: human, HepG2-A16-CD81EGFP cells; read-out: INHIBITION
parameter: cytotoxicity at 10 µM (%)
Answers are plain numbers, in %.

For every listed record, write down its cytotoxicity at 10 µM.
1. Cc1cc(C(C)NC(=O)CCn2nnc3ccccc3c2=O)c(C)o1 (stereo unspecified)
2. CCCc1nc2c(c(C)c(C)n2Cc2ccccn2)c(N)c1CC
3. COc1ccc(CNC(=O)C2(C#N)CCCC2)cc1
4. Cn1cc(C(=O)Nc2ccc(CC(=O)NCC(F)(F)F)cc2)nn1

1. 3.81
2. 23.3
3. -17.7
4. 10.8

For every listed record, write down its cytotoxicity at 10 µM.
1. Cc1cc(C(=O)N2CCN[C@H](C)C2)c2ccc(F)cc2n1
2. COc1ccc(OC)c(C2CCN(C(=O)C3CCN(C(C)C)CC3)C2)c1 (stereo unspecified)

1. 13.7
2. -7.49

###

test name: Toxicity liver stage against HepG2, at 10uM
Assay type: cell-based
Parameters: test concentration 10 uM, cell line HepG2-A16-CD81EGFP
condition details: human, HepG2-A16-CD81EGFP cells; read-out: INHIBITION
I'd appreciate it if you could supply cytotoxicity at 10 µM values for the items below.
Write the quantity with the unit trailing the number.

Example results:
compound | measured
COc1c(C)cnc(CSc2nnc(NC3CC3)s2)c1C | 10.9%
Cc1nc(CN2CCN(C(=O)Cc3cccc(Cl)c3)CC2)no1 | -4.76%
CCn1nc(C)cc1C(=O)N1CC[C@H](OC)[C@H]2CN(CC3CC3)C[C@H]21 | -133%
CC(NC(=O)NCC(C)(C)C(N)=O)c1nc(-c2ccccc2)cs1 (centres undefined) | 12.7%
CNc1cc(N2CCCC2CNCc2ccc(Cl)o2)ncn1 (centres undefined) | -11.6%

For every listed record, write down its cytotoxicity at 10 µM.
1. CCCNC(=O)c1cccc(CNCc2csc(C(C)C)n2)c1
2. CC(=O)N(CCc1ccccc1)CC(=O)Nc1ccccc1C#N
3. c1ccc(OCc2nnc3n2CCN(CC2CCOCC2)C3)nc1
4. CNC(=O)[C@@]12CCCN(c3ncccn3)[C@@H]1CN(C(=O)NC(C)C)C2
5. CN(C)C1CCCN(C(=O)CCc2csc(N)n2)CC1 (centres undefined)
6. O=C(CN1C(=O)CCNC1=O)N1CCOC(c2ccc(F)cc2)C1 (centres undefined)

1. 6.14%
2. 6.59%
3. 1.65%
4. 0.614%
5. 1.48%
6. 5.11%

###

test name: Toxicity liver stage against HepG2, at 10uM
Format: cell-based
Design: test concentration 10 uM, cell line HepG2-A16-CD81EGFP
condition details: human, HepG2-A16-CD81EGFP cells; read-out: INHIBITION
I'd appreciate it if you could supply cytotoxicity at 10 µM values for the items below.

compound | cytotoxicity at 10 µM
O=c1cc(CN2CCCC2)nc2n1CCCN(Cc1ccoc1)C2 | -123%

For every listed record, write down its cytotoxicity at 10 µM.
1. Cn1ccn2ncc(C(=O)NCc3cccnc3N3CCCC(O)C3)c12 (stereo unspecified)
2. CCc1cnc(CNc2ccc(C(=O)N3CCCC(C)C3)cc2C)o1 (stereo unspecified)
3. COCCNC(=O)c1ccc2ccc(N(C)CC3CC3)n2c1
4. c1ccc2c(c1)nnn2CCCNC1CCOC2(CCOCC2)C1 (stereo unspecified)
5. CCCN(Cc1cccnc1)C(=O)C1CCS(=O)(=O)CC1

1: -8.01%; 2: -3.58%; 3: 0.375%; 4: -4.66%; 5: -9.03%
